Assign TGI to each entry below.
System: EKVX NSCLC
Experiment: NCI tumour cell line growth inhibition, 48 h

>  <molecule>
OCc1ccc2c(c1)CC1(Cc3ccc(/C=N/O)cc3C1)C2 (stereo not drawn)

>  <reading>
> 100 µM

$$$$
>  <molecule>
COc1ccc(COCC[C@H](C)OC2OC(CO[Si](C)(C)C(C)(C)C)C(OC(=O)CCCN=[N+]=[N-])C(OC(=O)CCCN=[N+]=[N-])C2OC(=O)CCCN=[N+]=[N-])cc1 (stereo partly drawn)

>  <reading>
> 100 µM

$$$$

Now consider a different molecule.
// C=C(C)C1C/C=C(/C)CCCC2(CCC3=C(CC(C(=C)C)C/C=C(/C)CCC3)O2)C(=O)C1 (stereo not drawn) : TGI value = > 100 µM

----------
Test system: ACHN renal
Assay: NCI tumour cell line growth inhibition, 48 h
quantityName: TGI

// known answers, use as guide
>  <compound>
Cc1c2c(OCC3CCCCO3)nn(C)c(=O)c2c(C)n1-c1ccccc1 (centres undefined)

>  <reading>
31.1 µM

$$$$
>  <compound>
O=C(O)c1ccccc1/C=N/N=C1c2ccccc2-c2ccccc21

>  <reading>
> 100 µM

$$$$
>  <compound>
CC(C)(C)c1cc(C(=O)/C=C/c2ccc3c(c2)OCO3)cc(C(C)(C)C)c1O

>  <reading>
> 100 µM

$$$$
>  <compound>
c1c2c(cc(-n3nnc4c3CCCCCC4)c1-n1nnc3c1CCCCCC3)CCCCCC2

>  <reading>
20.9 µM

$$$$
>  <compound>
COc1ccc2[nH]c3c(c2c1)[C@H](C)C[C@@H]1C(=O)N(c2ccccc2)C(=O)[C@H]31

>  <reading>
> 100 µM

$$$$

Please give TGI for each item listed below.
1. COc1ccc(C(=O)c2ccc([As]=O)cc2)cc1 (centres undefined)
2. CN(C)CC1CCC(CN(C)C)C1=O (centres undefined)
3. CSC(=NCCc1c[nH]c2ccccc12)NC#N

Response:
1. 0.119 µM
2. 11.1 µM
3. > 100 µM

----------
Assign GI50 to each entry below.
Tested on: NCI-H226 lung
Test: NCI tumour cell line growth inhibition, 48 h

Please give GI50 for each item listed below.
1. O=S(=O)(CCCl)c1ccc(Cl)cc1
2. COc1ccc2c(c1)/C(=C/c1cc(OC)c(OC)c(OC)c1)C(=O)N2
3. O=c1c(F)cn(Cc2ccccc2CCl)c(=O)n1Cc1ccccc1CCl

Response:
16 µM
> 30.9 µM
0.539 µM

----------
Test system: SF-295 CNS
Test: NCI tumour cell line growth inhibition, 48 h; in the data active = GI50 below about 0.43 µM; inactive = the rest
Hi there, use one of these labels in your reply, thanks! 1 (yes) = active, 0 (no) = inactive

>  <compound>
O=C(Nc1ccc(Cl)c(Cl)c1)NS(=O)(=O)c1cnccc1Oc1ccc(F)cc1

>  <assignedClass>
0 (no)

$$$$
>  <compound>
COc1cnc2c(c1)C(=O)c1c-2n(CCCN2CCN(C)CC2)c(=O)c2cc([N+](=O)[O-])ccc12

>  <assignedClass>
1 (yes)

$$$$
>  <compound>
C=C1C(=O)O[C@H]2[C@H]1CC/C(COC(=O)NCC(C)c1ccc(CC(C)C)cc1)=C\CC[C@@]1(C)O[C@@H]21 (stereo not given in full)

>  <assignedClass>
0 (no)

$$$$

Query: Record request — test call for C=C(CN(C)C)C(=O)c1ccccc1[N+](=O)[O-]
Response: 0 (no)

Query: Record request — test call for CCCCn1c(-c2ccc(C(=O)O/N=C(\N)c3ccc4c(c3)OCO4)cc2)nc(-c2ccccc2)c1-c1ccccc1
Response: 0 (no)

Query: Record request — test call for O=c1oc2ccc(I)cc2c(=O)n1-c1ccc(Cl)cc1F
Response: 0 (no)

Query: Record request — test call for O=C1OCC2=C1C(c1ccccc1)c1cc3c(cc1N2CCO)OCO3 (stereo not given)
Response: 0 (no)

Query: Record request — test call for COc1ccc(CN2C3CC2CN(c2ccc(-c4cc(OCC(C)(C)O)cn5ncc(C#N)c45)cn2)C3)cn1
Response: 0 (no)

Query: Record request — test call for N#Cc1ccc(NC(=O)C(CC(=O)OCc2ccccc2)NC(=O)OCc2ccccc2)cc1 (stereo not given)
Response: 0 (no)

Query: Record request — test call for OC(c1cc2ccc(C(F)(F)F)cc2c2cc(C(F)(F)F)ccc12)C1CCCCN1 (stereo not given)
Response: 0 (no)

----------
System: NCI/ADR-RES ovarian
Assay: NCI tumour cell line growth inhibition, 48 h
quantityName: TGI

// known answers, use as guide
>  <compound>
COC(=O)c1cc(C#N)[nH]c1-c1cc(Br)cs1

>  <measuredTarget>
NCI/ADR-RES ovarian

>  <quantityName>
TGI

>  <reading>
39.3 µM

$$$$
>  <compound>
CCOC(=O)C1CCC(=O)N1C(=O)c1ccccc1 (stereo not given)

>  <measuredTarget>
NCI/ADR-RES ovarian

>  <quantityName>
TGI

>  <reading>
> 100 µM

$$$$
>  <compound>
CN(C)C(=O)O[C@H]1CN[C@H](C#Cc2cc3ncnc(Nc4ccc(OCc5cccc(F)c5)c(Cl)c4)c3s2)C1

>  <measuredTarget>
NCI/ADR-RES ovarian

>  <quantityName>
TGI

>  <reading>
> 25 µM

$$$$

Please give TGI for each item listed below.
1. Nc1ccc(/C=C/C(=O)NCc2cc3cc(-c4ccc(C(=O)N5CCC(F)(F)CC5)cc4)cc(-c4ccc(F)cc4)c3o2)cn1
2. O=c1[nH]c(=O)n(C2CC(O)C(CO)O2)cc1OCc1ccccc1 (stereo not given)

Response:
1: > 100 µM; 2: > 100 µM

----------
System: MCF7 breast
Assay: NCI tumour cell line growth inhibition, 48 h; in the data active = GI50 below about 0.43 µM; inactive = the rest
Hi there, use one of these labels in your reply, thanks! t = active, f = inactive

Use the examples below as a reference point.
>  <molecule>
Oc1ccccc1-c1nn(CNc2ccccc2Cl)c(=S)o1

>  <assignedClass>
f

$$$$
>  <molecule>
C=C1C[C@@H]2CC[C@@]34C[C@H]5O[C@H]6[C@@H](O3)[C@H]3O[C@H](CC[C@@H]3O[C@H]6[C@@H]5O4)CC(=O)C[C@@H]3[C@@H](OC)[C@@H](C[C@H](O)CN)O[C@H]3C[C@H]3O[C@@H](CC[C@@H]1O2)C[C@@H](C)C3=C

>  <assignedClass>
t

$$$$
>  <molecule>
N#Cc1ccc(NC(=O)C(CC(=O)OCc2ccccc2)NC(=O)OCc2ccccc2)cc1 (stereo not drawn)

>  <assignedClass>
f

$$$$
>  <molecule>
O=C(N[C@@H](C[Se][Se]C[C@H](NC(=O)c1ccc(Br)cc1F)C(=O)O)C(=O)O)c1ccc(Br)cc1F

>  <assignedClass>
f

$$$$
>  <molecule>
CCOC(=O)/C(C#N)=C\C=C(/Cl)c1ccc(Cl)cc1

>  <assignedClass>
f

$$$$
>  <molecule>
Cc1ccc(NC(=O)c2cc(S(=O)(=O)N3C(=O)NC(=O)NS3(=O)=O)c(S)cc2Cl)cc1

>  <assignedClass>
f

$$$$
>  <molecule>
Cc1cc(I)cc(CN(C)CCCN2CCCC2)c1O

>  <assignedClass>
f

$$$$
>  <molecule>
O=C(Nc1ccc(Cl)c(Cl)c1)NS(=O)(=O)c1cnccc1Oc1ccc(F)cc1

>  <assignedClass>
f

$$$$

Query: Record request — test call for O=C1OCC2=C1C(c1ccccc1)c1cc3c(cc1N2CCO)OCO3 (stereo not drawn)
Response: f

Query: Record request — test call for Cn1cc(C2=C(c3cn(C4CCN(Cc5ccccn5)CC4)c4ccccc34)C(=O)NC2=O)c2ccccc21
Response: f

Query: Record request — test call for C=C1C(=O)O[C@H]2[C@H]1CC/C(C=Nc1c(N)cc(C(F)(F)F)cc1Br)=C\CC[C@@]1(C)O[C@@H]21
Response: f

Query: Record request — test call for COC(=O)C1(C)Cc2cc(OC(C)=O)c(OC(C)=O)cc2N1 (stereo not drawn)
Response: f

Query: Record request — test call for O=S(=O)(NCCCNc1nccc(-c2c(-c3ccc(F)cc3)nc3sccn23)n1)c1ccc2ccccc2c1
Response: f

Query: Record request — test call for COc1cnc2c(c1)C(=O)c1c-2n(CCCN2CCN(C)CC2)c(=O)c2cc([N+](=O)[O-])ccc12
Response: t

Query: Record request — test call for O=c1oc2ccc(I)cc2c(=O)n1-c1ccc(Cl)cc1F
Response: f

Query: Record request — test call for COc1ccc2c(c1)/C(=C/c1cc(OC)c(OC)c(OC)c1)C(=O)N2
Response: t

Query: Record request — test call for C=C(CN(C)C)C(=O)c1ccccc1[N+](=O)[O-]
Response: f

Query: Record request — test call for CNC(=O)c1nn(C)c2c1C(C)(C)Cc1cnc(Nc3ccc(N4CCN(C)CC4)cc3)nc1-2
Response: t

----------
Test system: SR leukemia
Assay: NCI tumour cell line growth inhibition, 48 h
Assign GI50 to each entry below.

>  <compoundString>
Nc1ccc(/C=C/C(=O)NCc2cc3cc(-c4ccc(C(=O)N5CCC(F)(F)CC5)cc4)cc(-c4ccc(F)cc4)c3o2)cn1

>  <GI50>
12.9 µM

$$$$
>  <compoundString>
Cc1cc(I)cc(CN(C)CCCN2CCCC2)c1O

>  <GI50>
7.52 µM

$$$$

Now consider a different compound.
// c1ccc2[nH]c(-c3ccc(Nc4nc(N5CCCCC5)nc(N5CCOCC5)n4)cc3)nc2c1 : GI50 value = 0.73 µM
